The reported numbers originate from the nanobody polyreactivity screen of Harvey et al. (2022).

# method summary: yeast display, Sf9 membrane polyspecificity reagent, FACS + sequencing; frameworks hold sequencing errors
recorded metric: polyreactivity (PSR sort gate)

Please review the entries below; each comes with its answer.
polymer sequence: QVQLVESGGGLVKAGGSLRLSCAASGRTFSRYAMGWYRQAPGTEGEVVAAISYSGASTYYADSVKGRFTISRDNAKNTVYLQMNSLKPEDTAVSYCAARAPGPAPPQIRYGYWGQGTQVTVSS
polyreactivity (PSR sort gate): high polyreactivity

polymer sequence: QVQLVESGGGLVQAGGSLRLSCAASGRTFWYYAMGWYRQAPGKERELVAGITYGDGSTYYADSVKGRFTISRDNAKNTEYLQMNSLKPEDTAVYYCAVDLRSYWFRYGFDYWGQGTQVTVSS
polyreactivity (PSR sort gate): low polyreactivity

polymer sequence: QVHLVESGGGLVQAGGSLRLSCAASGSTFQTNAMGWSRQAPGKERELVAAISRTGGRSNYADSVKGRFTISRDNAKNTVYLQMHSLKPEDTAVYDCAAGVPKTGQAGYDYWGQGTQVTVSS
polyreactivity (PSR sort gate): high polyreactivity

polymer sequence: QVQLVESGGGLVQAGGSRRLSCAASGSTFYPYAMGWYRQAPGKERELVAAITWSGGRTYYADSVKGRFTISRDNAKNTVYLQMNSLKPEDTAVYYCAADRPDRWVDYWGQGTQVTVSS
polyreactivity (PSR sort gate): low polyreactivity

The record that follows has no polyreactivity (PSR sort gate) shown yet.
Query string: Given the entry QVQLVESGGALVQAGGSLRLSCAASGRTYRWYAMGWYRQAPGKESELVARIRGSGGSTYADSVKGRFTISRDNAKNTVNLEMNSLTPEDTAVYYCARKVTGRNGAQFYVSYYYWGQGTQVPVSS , report its measured polyreactivity (PSR sort gate).
Result string: low polyreactivity

----------
# method summary: yeast display, Sf9 membrane polyspecificity reagent, FACS + sequencing; frameworks hold sequencing errors
recorded metric: polyreactivity (PSR sort gate)

polymer sequence: QVQLVESGGGLVQAGGSLRLSSAASGFTLGYYAMGWYRQAPGKEREMVAAIRSSGTRTYYADSVKGRFTISRDNAKYTVYLLMNSLKPEDTAVYYCAARTPSYEMDYWGQGTQVTVSS
polyreactivity (PSR sort gate): high polyreactivity
--
polymer sequence: QVQLVESGGGLVQAGGSLRLSCAASGRTIRRNARGWYRQAPGKERELVAGISGSGTITYADSVKGRVTISRDNAKNTVYLQMNSLKPEDTAVYYCAARRKSFYTFYYWGQGTKVTVSS
polyreactivity (PSR sort gate): high polyreactivity
--
polymer sequence: QVQLVESGGGLVQAGGSLRLSCAASGRTFGIYAMGWYRQAPGTERQMVADITSGGDTYYADSVKGRFTISRDNAKNTVYLQMNSLKPEDTAVYYCAADIYPDWIYLLYGYWGQGTQVNVSS
polyreactivity (PSR sort gate): low polyreactivity
--
polymer sequence: QVQLVESGGGLVQAGGSLRLSCAASGRTFFGYTMGWYRHAPGKERELVAVISKRGGRTYYADSVKGRFTISRDNAKNTVYLQMNSLKPEDTAVYYCNRVKDSNVSQAMEYWGQGTQVTVSS
polyreactivity (PSR sort gate): high polyreactivity
--
polymer sequence: QVQLVETGAGLVQAGGSLRLSCAASGRTFDDNAMGWSRQATGEVRELVAAISSTGSTNYADSVKGRFTISRDNAKNTVYFQMNSLKPEDTAVYYCNTDRGHERAFYYWGQGTQVTVSS
polyreactivity (PSR sort gate): low polyreactivity

Query string: # get_value(readout='polyreactivity (PSR sort gate)', item= QVQIEESGGGLVQAGGSLRLSCAASGSIFVVYALGWYRPAPGKERELVAGISRNGGRTYYADSVKGRFTISRDNAKITVYLQMNILKPEDTAVYYCNAYRPSRHDYWGQGTQVTVSS )
Result string: high polyreactivity

Query string: What measured polyreactivity (PSR sort gate) goes with QVQLVESGGGLVQAGGSHRLSCAASGRIFDKYAMGWYRQAPGKERELVATITSSGGSTYYADSVKGRFTISRDNAKNTVYLQMNSLKPEDTAVYYCAALDRTGWGYDYWGQGTQVTVSS ?
Result string: low polyreactivity

Query string: Endpoint output: polyreactivity (PSR sort gate) of QVQLVESGGGLVQAGGSLRLSCAASGRTFGKYAMGWYRQAPGKERELVATISLSGGSTYYADSVKGRFTISRDNAKNTVYLQMNSLKPEDTAVYYCAARVYTYYYDLHKRYYWGQGTQVTVSS . Value?
Result string: high polyreactivity

Query string: Please report the recorded polyreactivity (PSR sort gate) for QVQLVESGGGLVQAGGSLRLSCAASGRIGPNVMGWYRQPPGKERELVARITWRGGSTYYADSVKGRFTISRDNAKNTVYLQMNSLKPEDTAVYYCNARGHGGWGTSMYYWGQGTQVTVSS .
Result string: high polyreactivity

Query string: Quick one: polyreactivity (PSR sort gate) of QVQLVESGGGLVQAGGSLRLSGAASGSIFRDNGMGWYRPAPGKERELVAAINSGDSTYYADSVKGRFTISRDNAKNTVYLQLNSLKPEDTAVYYCNADDRRALSQRQYDWYDYWGQGTQVTVSS ?
Result string: low polyreactivity

Query string: Which polyreactivity (PSR sort gate) is listed for QVQLVESGGGLVQAGGSLRLSCAASGGILDTYAMGWDRQAPGKERELVAAITSGGNTNYADSVKGRFTISRDNAKNTFYLQMNSLKPEDTAVYFCNVVSWYYFFRPWEYDYWGQGTQVTVSS ?
Result string: low polyreactivity
